Tested on: COLO 205 colon
Assay: NCI-60 one-dose screen, 48 h
Conditions: 10 µM unless noted
About 83,000 compounds went through this panel and 20% of them were active in at least one assay; those are over-represented in the sample as a whole. Active and inactive are the calls of the source. The calls were made as follows: active = growth percent below 10; inactive = the rest.
Pick from 1 for active, -1 for inactive when you respond.

# molecule, label class
data = [
    ("COc1cc2oc(-c3cccc(C(=O)Nc4ccc(Cl)cc4)c3)cc(=O)c2c(OCC(=O)N[C@@H](Cc2ccccc2)C(=O)O)c1OC", -1),
    ("CC(=O)OC[C@@]1(C)C2CC[C@]3(C)C(CC=C4C5CC(C)(C)CC[C@]5(C(=O)Nc5ccc(Br)cc5)CC[C@]43C)[C@@]2(C)C[C@@H](OC(C)=O)[C@@H]1OC(C)=O (stereo partly drawn)", -1),
    ("Cn1cc(-c2cc(N)n3nc(-c4cn(C)c5ccc(Cl)cc45)cc3n2)c2ccccc21", -1),
]

So what was the verdict on Cc1ccc(C(=O)NN2C(=O)/C(=C/C=C/c3ccc([N+](=O)[O-])o3)SC2=S)cc1 in this test?
1

So what was the verdict on Cn1cc(-c2nnc(N)nc2-c2c[nH]c3ccc(Br)cc23)c2cc(Br)cnc21 in this test?
-1

So what was the verdict on CCOC(=O)C1=C(N)N(c2ccccc2)C2=C(C(=O)CC(C)(C)C2)C1c1cccc(Cl)c1Cl (stereo not drawn) in this test?
-1

So what was the verdict on COc1cc(C2CC(c3cc(OC)c(OC)c(OC)c3)=NN2C(C)=O)ccc1OCc1ccc(F)cc1 (stereo not drawn) in this test?
-1

So what was the verdict on COc1ccc(NC(=O)[C@@H](N)Cc2ccccc2)cc1C(=O)Nc1cccc(C2CC(=O)c3c(cc(OC)c(OC)c3OC)O2)c1 (stereo partly drawn) in this test?
-1

----------
Tested on: A498 renal
Test: NCI-60 one-dose screen, 48 h (100 = growth as untreated, 0 = no growth, -100 = all killed)
Settings: 10 µM unless noted
Method: Growth inhibition of the A498 human tumor cell line is measured as a screen for anti-cancer activity. Cells are grown in 96 well plates and exposed to the test compound for 48 hours. Compounds are tested at a single concentration, which is 10^-5 M for most compounds. The reported endpoint is percent growth (GI% or GIPRCNT), where numbers from 0 - 100% represent growth inhibition, and numbers from -100% - 0 represent cell death. For example, a value of 40 represents 60% growth inhibition. […]
The panel holds about 83,000 compounds, 20% with a hit somewhere; the sample as a whole holds those more often.
endpoint: growth (%)
// units = %; emit number, no label

Please review the entries below; each comes with its answer.
# compound, growth (%)
data = [
    ("COc1ccc(C2=NN(c3ccccc3)C(c3ccc(OCc4ccccc4)c(OC)c3)C2)cc1OC (centres undefined)", 118),
    ("CCCCn1c(O)c(N=Nc2nc(-c3cc4ccccc4oc3=O)cs2)c2cc(Br)ccc21", 103),
    ("COc1ccc(Cc2nn(CC(=O)N/N=C/c3ccc(F)cc3)c(=O)c3c(C)noc23)cc1", -57.5),
    ("CC(C)Sc1nc(NCCc2c[nH]c3ccccc23)c(C#N)c(-c2ccccc2)n1", 23.4),
    ("Cn1cc(-c2nnc(N)nc2-c2c[nH]c3ccc(F)cc23)c2cccnc21", 86.2),
]

Recorded growth (compound CC(=O)Oc1ccc(/C=C/C(=O)N[C@@H](Cc2ccccc2)C(O)C(=O)NCc2ccccc2)cc1OC(C)=O (some centres undefined) ): 115

Recorded growth (compound CN(C)CCn1c2ccccc2c2nc3cc4ccccc4cc3nc21 ): 80.8

Recorded growth (compound CN(C)c1ccnc(CNCCSC2(c3ccccc3)c3ccccc3C=Cc3ccccc32)c1 ): -38.8

----------
System: NCI-H226 lung
Experiment: NCI-60 one-dose screen, 48 h
Settings: 10 µM unless noted
The panel holds about 83,000 compounds, 20% with a hit somewhere; the sample as a whole holds those more often. Calls of active or inactive are those of the source. Rule for the calls: active = growth percent below 10; inactive = the rest.
Pick from 1.0 (active), 0.0 (inactive) when you respond.

# molecule, label class
measured = [
    ("CNS(=O)(=O)c1ccc(Nc2ccc(C(F)(F)F)cc2)c(-c2cn(C)cn2)c1", 0.0),
]

So what was the verdict on COc1cc(/C=C/C(=O)c2nnn(-c3ccc(Cl)cc3)c2C)cc(OC)c1OC in this test?
0.0

So what was the verdict on CSc1ccc(C(=O)Nc2ccc3nn(/C(C#N)=C/c4ccccn4)nc3c2)cc1 in this test?
1.0

So what was the verdict on C=C1CC[C@@H]2[C@]3(C)COC(c4cn(-c5ccccc5)nc4-c4cccc([N+](=O)[O-])c4)O[C@@H]3CC[C@@]2(C)[C@@H]1C/C=C1/C(=O)OC[C@H]1O (stereo partly drawn) in this test?
1.0

So what was the verdict on Cn1cc(-c2cc3nc(-c4cn(C)c5ncc(Br)cc45)cc(N)n3n2)c2ccccc21 in this test?
1.0

So what was the verdict on Cc1cnc(C(=O)NNc2nc3cc(F)ccc3n3c(C(=O)N4CC5CC(C4)N5)ccc23)cn1 in this test?
0.0

So what was the verdict on CC(=O)N1CCN(Cc2ccc3c(NNC(=O)c4cnccn4)nc4cc(F)ccc4n23)CC1 in this test?
1.0

So what was the verdict on COc1ccc(N2N=C(c3ccc4c(c3)OCO4)CC2c2cccc(NC(=O)CCCNS(=O)(=O)c3ccc(F)cc3)c2)cc1 (stereo not drawn) in this test?
0.0

----------
Overview of reported growth across a group of molecules:
System: LOX IMVI melanoma
Assay: NCI-60 one-dose screen, 48 h (100 = growth as untreated, 0 = no growth, -100 = all killed)
Conditions: 10 µM
Compounds without any hit were thinned out: in the full panel of roughly 83,000, 20% have a hit.
// units = %; emit number, no label

Please review the entries below; each comes with its answer.
# molecule, target, unit abbreviation, result number
measured = [
    ("CCCn1cc(-c2nc(Nc3ccc(C(=O)NCCCCNc4cccc5c4C(=O)N(C4CCC(=O)NC4=O)C5=O)cc3)nc3[nH]ccc23)cn1 (centres undefined)", "LOX IMVI melanoma", "%", 90.5),
    ("COc1cc2nc(SCc3ccccc3)n(-c3ccc(Cl)cc3)c(=O)c2cc1OC", "LOX IMVI melanoma", "%", -100),
    ("C#CCOc1ccc(/C=N/Nc2nc(-c3ccc(Cl)cc3)cs2)cc1OC", "LOX IMVI melanoma", "%", 58.6),
    ("CCN(CC)c1ccnc(CNCCSC(c2ccccc2)(c2ccccc2)c2ccc(C)cc2)c1", "LOX IMVI melanoma", "%", -99.6),
]

Readout growth for CC(=O)N1CCN(Cc2ccc3c(NNC(=O)c4cnccn4)nc4cc(F)ccc4n23)CC1 , test system LOX IMVI melanoma, was 10.3

Readout growth for CCCCCCCCOc1cccc(S(=O)(=O)Nc2ccc(C)cc2C(=O)O)c1 , test system LOX IMVI melanoma, was 101

Readout growth for COc1ccc(-c2ccnc(SCc3cc4ccccc4[nH]c3=O)n2)cc1 , test system LOX IMVI melanoma, was 49.9

Readout growth for COc1c(F)ccc(C(=O)Nc2ccc3nc(NC(=O)C4CCCN(S(=O)(=O)C5CC5)C4)sc3c2)c1F (centres undefined) , test system LOX IMVI melanoma, was 24.5

Readout growth for O=C(COc1ccc2c(c1)CCCC(=O)N2)NCc1ccccc1 , test system LOX IMVI melanoma, was 78.1

----------
Test system: KM12 colon
Test: NCI-60 one-dose screen, 48 h (100 = growth as untreated, 0 = no growth, -100 = all killed)
Conditions: 10 µM unless noted
Compounds without any hit were thinned out: in the full panel of roughly 83,000, 20% have a hit.
endpoint: growth (%)
// units = %; emit number, no label

Please review the entries below; each comes with its answer.
# molecule, unit abbreviation, growth
rows = [
    ("NS(=O)(=O)c1ccc(-n2cc(-c3cccc(NC(=O)c4cc(C(F)(F)F)cc(C(F)(F)F)c4)c3)nn2)cc1", "%", 21.9),
    ("COc1cc2c(c(OC)c1OC)C(=O)CC(c1cccc(NC(=O)c3cc([N+](=O)[O-])ccc3Cl)c1)O2 (stereo not drawn)", "%", -54.7),
    ("CC(=O)Nc1ccc(-c2nc3cc(-c4ccc(O)cc4)ccc3n2C)cc1", "%", 57.8),
    ("CN(C)CCOc1ccc(C(=O)C2[C@H](c3ccc(Cl)cc3)[C@@H](c3ccccc3)NC23C(=O)Nc2ccccc23)cc1 (stereo partly drawn)", "%", 33.4),
    ("CC(=O)Nc1cccc(Nc2nc(NCc3ccccc3)c3ccccc3n2)c1", "%", -66),
    ("O=C1NC(=O)c2c1c1c3cc(Br)ccc3[nH]c1c1oc3ccc(F)cc3c21", "%", 15.1),
    ("CC1(C)CC[C@]2(C(=O)O)CC[C@]3(C)C(=CCC4[C@@]5(C)C[C@@H](O)[C@@H]6OC(c7ccco7)OC[C@@]6(C)C5CC[C@]43C)C2C1 (stereo partly drawn)", "%", 17.3),
    ("CC(C)Sc1nc(NCCc2c[nH]c3ccccc23)c(C#N)c(-c2ccc(F)cc2)n1", "%", 15.7),
]

Recorded growth (molecule Cn1cc(-c2cc(N)n3nc(-c4cn(C)c5ccccc45)cc3n2)c2cc(Br)ccc21 ): -60.4

Recorded growth (molecule COc1ccc2c(c1)c(-c1cc3nc(-c4cn(C)c5ncccc45)cc(N)n3n1)cn2C ): -69.3

Recorded growth (molecule CC(C)c1sc(NC(=O)c2cc(NC(=O)c3cc(NC(=O)c4nccn4C)cn3C)cn2C)nc1C(=O)NCCCN(C)C ): 111

Recorded growth (molecule COc1ccc(C2=NN(C(C)=O)C(c3ccc(OCc4ccc(Cl)cc4)c(OC)c3)C2)cc1OC (stereo not drawn) ): 39

Recorded growth (molecule COCOc1cc2oc(C(=O)N[C@@H](Cc3ccccc3)C(O)C(=O)NCc3ccccc3)c(C)c(=O)c2cc1OCOC (stereo partly drawn) ): 64.8

Recorded growth (molecule O=C(Cn1c(/C=C/c2cccc([N+](=O)[O-])c2)nc2ccccc2c1=O)Nc1ccccc1 ): 74.6

Recorded growth (molecule CC12CC[C@@H]3[C@]4(C)COC(c5c(F)cccc5F)O[C@@H]4CC[C@@]3(C)[C@@H]1CC(C1=CCOC1=O)O2 (stereo partly drawn) ): 72.6
